Hi there, I'd appreciate the recorded IC50 for every entry that follows.
# Test system: Ishikawa
# testDescription: Antiproliferative activity against ER-positive human Ishikawa cells assessed as inhibition of cell growth incubated for 48 hrs by CCK8 assay
# Type: functional, cell-based
// return numeric value only (unit: µM, not printed)

// `O=C(c1ccc(OCCNC/C=C/C(=O)N2CCCC2)cc1)c1c(-c2ccc(O)cc2)sc2cc(O)ccc12` : IC50 value = 46.1

// `O=C(c1ccc(OCCNC/C=C/C(=O)N2CCC2)cc1)c1c(-c2ccc(O)cc2)sc2cc(O)ccc12` : IC50 value = 29.6

// O=C(c1ccc(OCCN2CCCCC2)cc1)c1c(-c2ccc(O)cc2)sc2cc(O)ccc12 [RALOXIFENE] : IC50 value = 28.4

// `O=C(c1ccc(OC2CN(C/C=C/C(=O)N3CCOCC3)C2)cc1)c1c(-c2ccc(O)cc2)sc2cc(O)ccc12` : IC50 value = 18.4

// `O=C(c1ccc(OCCNC/C=C/C(=O)N2CCOCC2)cc1)c1c(-c2ccc(O)cc2)sc2cc(O)ccc12` : IC50 value = 24.9

// `CNC(=O)/C=C/CNCCOc1ccc(C(=O)c2c(-c3ccc(O)cc3)sc3cc(O)ccc23)cc1` : IC50 value = 50.9

// `CN(C)C(=O)/C=C/CNCCOc1ccc(C(=O)c2c(-c3ccc(O)cc3)sc3cc(O)ccc23)cc1` : IC50 value = 48.4
